Origin of values: patent US20250163162A1

Biological target: T1, IL10Rα/IL2Rγ receptor (human, UniProt Q13651 22-578; P31785 23-369)
T1 sequence (looked up) 1: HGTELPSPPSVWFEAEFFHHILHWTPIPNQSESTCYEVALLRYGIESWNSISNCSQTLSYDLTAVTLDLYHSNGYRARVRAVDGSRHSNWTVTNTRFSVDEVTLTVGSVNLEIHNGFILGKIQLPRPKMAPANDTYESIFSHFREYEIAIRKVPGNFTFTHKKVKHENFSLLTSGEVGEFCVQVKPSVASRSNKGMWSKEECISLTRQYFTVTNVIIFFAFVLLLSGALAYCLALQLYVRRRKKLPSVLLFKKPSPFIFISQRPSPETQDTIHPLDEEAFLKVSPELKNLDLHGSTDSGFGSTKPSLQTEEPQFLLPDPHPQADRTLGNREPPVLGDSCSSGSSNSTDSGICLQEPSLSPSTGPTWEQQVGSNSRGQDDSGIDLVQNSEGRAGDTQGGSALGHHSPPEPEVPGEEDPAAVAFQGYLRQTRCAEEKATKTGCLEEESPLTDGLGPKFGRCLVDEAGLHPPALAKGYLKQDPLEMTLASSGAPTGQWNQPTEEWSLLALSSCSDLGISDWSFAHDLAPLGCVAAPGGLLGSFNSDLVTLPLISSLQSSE
T1 sequence (looked up) 2: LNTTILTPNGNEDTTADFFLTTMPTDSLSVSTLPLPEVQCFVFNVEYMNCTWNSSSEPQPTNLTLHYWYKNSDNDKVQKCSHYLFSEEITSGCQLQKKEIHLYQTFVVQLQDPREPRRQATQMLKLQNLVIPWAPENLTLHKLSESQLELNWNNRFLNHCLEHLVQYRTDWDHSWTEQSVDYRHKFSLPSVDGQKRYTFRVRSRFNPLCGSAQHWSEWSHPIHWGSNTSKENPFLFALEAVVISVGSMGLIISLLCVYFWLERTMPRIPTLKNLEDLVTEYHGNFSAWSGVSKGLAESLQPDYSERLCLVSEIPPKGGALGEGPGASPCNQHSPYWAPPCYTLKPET
Assay: cell-based or functional assay
Observed property: pSTAT3 MFI, CD4 T cells, 0.01 nM (unstimulated 1887) (MFI)
Report only the number, with the unit MFI understood.

For DR465(DR240-DR231) (bispecific antibody) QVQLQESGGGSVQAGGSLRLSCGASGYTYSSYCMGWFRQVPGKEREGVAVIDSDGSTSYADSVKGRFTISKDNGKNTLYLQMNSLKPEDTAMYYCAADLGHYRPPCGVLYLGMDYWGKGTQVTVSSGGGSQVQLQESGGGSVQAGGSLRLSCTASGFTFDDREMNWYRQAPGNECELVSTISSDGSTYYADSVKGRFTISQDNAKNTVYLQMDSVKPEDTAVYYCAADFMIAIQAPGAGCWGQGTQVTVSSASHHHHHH the binder record lists pSTAT3 MFI, CD4 T cells, 0.01 nM (unstimulated 1887) as 1850

binder DR441(DR236-DR231) (bispecific antibody) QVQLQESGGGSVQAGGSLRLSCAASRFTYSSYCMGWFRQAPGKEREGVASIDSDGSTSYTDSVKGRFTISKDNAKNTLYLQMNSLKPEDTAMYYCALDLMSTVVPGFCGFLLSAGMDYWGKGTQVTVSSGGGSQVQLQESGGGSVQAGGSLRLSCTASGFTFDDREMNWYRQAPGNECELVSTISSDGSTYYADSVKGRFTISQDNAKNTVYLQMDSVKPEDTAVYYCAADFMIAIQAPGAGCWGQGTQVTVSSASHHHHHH , pSTAT3 MFI, CD4 T cells, 0.01 nM (unstimulated 1887) observed: 1880

Sure, the documented pSTAT3 MFI, CD4 T cells, 0.01 nM (unstimulated 1887) for DR395(DR229-DR239) (bispecific antibody) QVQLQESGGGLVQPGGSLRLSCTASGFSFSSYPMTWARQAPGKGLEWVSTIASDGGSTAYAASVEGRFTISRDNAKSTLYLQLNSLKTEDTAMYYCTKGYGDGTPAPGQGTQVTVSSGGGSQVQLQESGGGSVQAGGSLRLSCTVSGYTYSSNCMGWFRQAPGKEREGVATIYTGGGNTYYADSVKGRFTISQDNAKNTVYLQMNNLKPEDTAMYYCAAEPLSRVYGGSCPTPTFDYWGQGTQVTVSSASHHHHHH is 1890

Sample DR471(DR241-DR231) (bispecific antibody) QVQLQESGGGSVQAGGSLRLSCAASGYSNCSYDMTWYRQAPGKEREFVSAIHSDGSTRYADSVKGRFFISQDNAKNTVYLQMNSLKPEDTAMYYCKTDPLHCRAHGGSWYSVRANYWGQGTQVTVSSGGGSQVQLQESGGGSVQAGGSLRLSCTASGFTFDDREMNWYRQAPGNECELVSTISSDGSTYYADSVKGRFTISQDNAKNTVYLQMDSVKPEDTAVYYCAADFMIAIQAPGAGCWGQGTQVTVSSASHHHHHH ; pSTAT3 MFI, CD4 T cells, 0.01 nM (unstimulated 1887) observed: 1860
